Reference source: patent US6984633B2

Measured target: angiotensin II AT1 receptor
Run description: Assay A: Angiotensin II binding activity, 125I-AII displacement in rat uterine membrane preparation
Protocol: Assay A: Antiotensin II Binding Activity Compounds of the invention were tested for ability to bind to the smooth muscle angiotensin II receptor using a rat uterine membrane preparation. […] Filters were assayed for radioactivity in a Micromedic gamma counter. […] Specific binding was calculated as total binding minus nonspecific binding. […] Binding data were analyzed by a nonlinear least-squares curve fitting program.
The entries below come with measured pIC50 values attached.
Please note pIC50 is a logarithmic value: minus log10 of concentration in mol/L. Answer with that number alone.

Examples with their reported pIC50 follow.
[[record]]
compound = "CCCCc1nn(CC(C)c2cc(OC)ccc2OC)c(=O)n1Cc1ccc(-c2ccccc2-c2nn[nH]n2)cc1 (stereo not shown)"
metric_name = "pIC50"
value_reported = 7.66

[[record]]
compound = "CCCn1nc(C(F)F)nc1Cc1ccc(-c2ccccc2-c2nnn[nH]2)nc1"
metric_name = "pIC50"
value_reported = 6.42

[[record]]
compound = "CCCCc1nc2c(OC(C)=O)nnc(OC(C)=O)c2n1Cc1ccc(-c2ccccc2-c2nnn[nH]2)cc1"
metric_name = "pIC50"
value_reported = 7.40


With those in mind, consider the next compound.
-- ask # query: pIC50 of entry CCCCn1nc(C(F)F)nc1Cc1ccc(-c2ccccc2-c2nnn[nH]2)nc1
-- reply 6.38
